target: Fatty acid synthase (Homo sapiens) (UniProt P49327); experiment: inhibition of human FAS-TE enzyme activity – biochemical, fluorescence intensity, uHTS, primary screen (AID 602261); details: recombinant FAS-TE, OMFH fluorogenic substrate, fluorescence endpoint; at 15 µM;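 note: 0% = DMSO with enzyme and 100% = substrate without enzyme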
Sequence (P49327 whole entry, looked up): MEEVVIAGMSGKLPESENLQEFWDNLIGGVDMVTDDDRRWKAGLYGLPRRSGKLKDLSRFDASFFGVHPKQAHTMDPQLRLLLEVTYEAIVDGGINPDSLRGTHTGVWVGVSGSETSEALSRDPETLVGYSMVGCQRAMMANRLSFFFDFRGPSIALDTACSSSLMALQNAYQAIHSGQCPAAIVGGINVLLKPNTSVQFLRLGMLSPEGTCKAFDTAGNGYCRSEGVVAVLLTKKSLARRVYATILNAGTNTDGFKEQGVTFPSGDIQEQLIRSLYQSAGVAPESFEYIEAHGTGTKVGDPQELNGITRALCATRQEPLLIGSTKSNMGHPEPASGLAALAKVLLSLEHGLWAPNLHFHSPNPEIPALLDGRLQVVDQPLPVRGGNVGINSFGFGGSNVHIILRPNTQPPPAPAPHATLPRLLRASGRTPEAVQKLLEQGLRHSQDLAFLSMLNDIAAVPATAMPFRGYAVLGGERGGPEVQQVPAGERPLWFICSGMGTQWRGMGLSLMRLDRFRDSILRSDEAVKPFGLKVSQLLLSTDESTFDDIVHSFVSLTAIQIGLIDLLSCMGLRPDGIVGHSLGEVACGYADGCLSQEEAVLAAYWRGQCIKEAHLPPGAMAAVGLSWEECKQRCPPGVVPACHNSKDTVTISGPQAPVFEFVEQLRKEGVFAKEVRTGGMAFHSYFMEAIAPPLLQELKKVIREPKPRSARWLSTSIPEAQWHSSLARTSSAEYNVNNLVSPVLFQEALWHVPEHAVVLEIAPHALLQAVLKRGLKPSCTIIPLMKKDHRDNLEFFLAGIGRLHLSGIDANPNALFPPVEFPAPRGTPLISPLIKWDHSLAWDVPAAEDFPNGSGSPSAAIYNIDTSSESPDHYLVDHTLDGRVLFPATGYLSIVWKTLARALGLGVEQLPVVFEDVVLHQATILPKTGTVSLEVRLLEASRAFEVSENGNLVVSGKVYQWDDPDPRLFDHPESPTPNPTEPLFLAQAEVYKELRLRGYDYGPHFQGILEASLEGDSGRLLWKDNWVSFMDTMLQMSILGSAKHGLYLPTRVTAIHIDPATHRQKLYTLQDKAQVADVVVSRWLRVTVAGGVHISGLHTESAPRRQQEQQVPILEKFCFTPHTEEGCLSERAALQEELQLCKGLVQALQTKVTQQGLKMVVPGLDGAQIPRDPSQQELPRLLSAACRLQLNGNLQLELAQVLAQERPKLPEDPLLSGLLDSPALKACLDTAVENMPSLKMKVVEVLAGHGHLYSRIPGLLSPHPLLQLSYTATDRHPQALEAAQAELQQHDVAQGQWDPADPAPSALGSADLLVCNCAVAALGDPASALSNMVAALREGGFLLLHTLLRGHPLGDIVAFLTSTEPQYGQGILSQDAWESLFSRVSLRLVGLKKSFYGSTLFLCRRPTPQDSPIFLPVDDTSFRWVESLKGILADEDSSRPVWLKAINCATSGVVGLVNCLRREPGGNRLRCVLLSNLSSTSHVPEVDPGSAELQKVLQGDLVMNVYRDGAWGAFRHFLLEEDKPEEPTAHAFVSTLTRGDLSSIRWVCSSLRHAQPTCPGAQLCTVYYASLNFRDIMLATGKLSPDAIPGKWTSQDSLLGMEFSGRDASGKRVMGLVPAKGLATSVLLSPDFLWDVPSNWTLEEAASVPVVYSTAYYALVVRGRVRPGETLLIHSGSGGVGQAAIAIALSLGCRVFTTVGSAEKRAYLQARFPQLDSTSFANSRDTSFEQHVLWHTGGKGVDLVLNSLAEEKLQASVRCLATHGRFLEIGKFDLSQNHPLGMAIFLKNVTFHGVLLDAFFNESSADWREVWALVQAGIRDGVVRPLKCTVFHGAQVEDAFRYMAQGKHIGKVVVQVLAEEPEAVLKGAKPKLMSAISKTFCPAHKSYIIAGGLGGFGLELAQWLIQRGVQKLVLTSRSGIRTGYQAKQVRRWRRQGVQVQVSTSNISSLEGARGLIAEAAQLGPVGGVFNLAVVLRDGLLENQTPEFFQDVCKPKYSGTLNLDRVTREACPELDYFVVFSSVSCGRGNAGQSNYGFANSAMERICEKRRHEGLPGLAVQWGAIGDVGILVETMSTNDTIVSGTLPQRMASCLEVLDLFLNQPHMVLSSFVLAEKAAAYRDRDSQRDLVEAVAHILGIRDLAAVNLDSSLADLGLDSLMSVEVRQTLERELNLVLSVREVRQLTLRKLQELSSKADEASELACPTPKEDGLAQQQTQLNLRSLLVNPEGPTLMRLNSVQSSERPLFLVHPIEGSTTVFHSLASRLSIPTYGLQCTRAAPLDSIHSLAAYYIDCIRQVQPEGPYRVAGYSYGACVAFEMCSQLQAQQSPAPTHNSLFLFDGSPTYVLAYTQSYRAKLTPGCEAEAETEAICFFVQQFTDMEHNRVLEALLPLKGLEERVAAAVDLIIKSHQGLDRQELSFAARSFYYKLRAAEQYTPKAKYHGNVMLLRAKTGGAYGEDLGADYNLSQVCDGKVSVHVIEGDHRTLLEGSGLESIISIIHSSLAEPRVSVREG
About 2,400 (0.67%) of roughly 360,000 compounds were called active.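 Rule for the calls: active = compounds whose normalised, plate-corrected inhibition of enzyme fluorescence in the single-dose primary screen is 50% or more; inactive = the rest.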 Many of the other results were omitted from the sample, so actives are more common in it than they were.
Classes used: label 1 (active), label 0 (inactive)

>  <MOLECULE>
O=C(NCCN1CCOC1=O)C1CCC(=O)N(CCc2ccc(Cl)cc2)C1 (stereo not given)

>  <CLASS_NAME>
label 0

$$$$
>  <MOLECULE>
COc1ccc(C2Nc3ccccc3C(=O)N2c2ccc(Cl)cc2)cc1Cn1cc([N+](=O)[O-])cn1 (stereo not given)

>  <CLASS_NAME>
label 1

$$$$
>  <MOLECULE>
CC(C)C[C@H](NC(=O)NCCc1ccc(Cl)cc1)C(=O)O

>  <CLASS_NAME>
label 0

$$$$
>  <MOLECULE>
C/C(=N\Nc1nc(N2CCOCC2)nc(N2CCOCC2)n1)c1ccc([N+](=O)[O-])cc1

>  <CLASS_NAME>
label 1

$$$$
>  <MOLECULE>
COc1ccc(CN2CCCC(C(=O)c3ccc(Cl)cc3)C2)cc1Cn1cncn1 (stereo not given)

>  <CLASS_NAME>
label 0

$$$$
>  <MOLECULE>
COc1ccc(C2Nc3ccccc3C(=O)N2Cc2ccccc2)cc1Cn1nnc2ccccc21 (stereo not given)

>  <CLASS_NAME>
label 0

$$$$
>  <MOLECULE>
CCc1ccccc1OCC(=O)Nc1nnc(C2CC2)s1

>  <CLASS_NAME>
label 0

$$$$
>  <MOLECULE>
Cc1nnc(-c2ccc(Oc3ccc(C)c(C)c3)c([N+](=O)[O-])c2)o1

>  <CLASS_NAME>
label 0

$$$$
>  <MOLECULE>
C/C(=N\Nc1ccc([N+](=O)[O-])cc1)c1ccc(-n2nncc2C(C)(C)C)cc1

>  <CLASS_NAME>
label 0

$$$$
>  <MOLECULE>
O=S1(=O)CC(N2CCC(Cc3ccccc3)CC2)CN1Cc1ccccc1 (stereo not given)

>  <CLASS_NAME>
label 0

$$$$

====

molecular target: Fatty acid synthase (Homo sapiens); experiment: inhibition of human FAS-TE enzyme activity – biochemical, fluorescence intensity, uHTS, primary screen (AID 602261); conditions: recombinant FAS-TE, OMFH fluorogenic substrate, fluorescence endpoint; at 15 µM; active compounds read high;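 note: 0% = DMSO with enzyme and 100% = substrate without enzyme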
The campaign covered roughly 360,000 compounds. About 2,400 (0.67%) were called active. What follows is part of a selection rich in actives, with near analogues and random picks from the rest.
PARAMETER_MEASURED: inhibition (%)

>  <COMPOUND>
CC1CCN(c2ccc(C(=O)NCc3ccc4c(c3)OCO4)cc2[N+](=O)[O-])CC1

>  <UNITS_LABEL>
%

>  <QUANTITATIVE_RESULT>
13.7

$$$$
>  <COMPOUND>
C[C@H](NC(=O)c1nc[nH]c1C(=O)N[C@@H](C)C(=O)OC(C)(C)C)C(=O)OC(C)(C)C

>  <UNITS_LABEL>
%

>  <QUANTITATIVE_RESULT>
-7

$$$$
>  <COMPOUND>
Cn1c(NN)nc2sc3c(c2c1=O)CCC3

>  <UNITS_LABEL>
%

>  <QUANTITATIVE_RESULT>
0

$$$$
>  <COMPOUND>
O=C(/C=C/c1ccc([N+](=O)[O-])cc1)NCCSCc1ccco1

>  <UNITS_LABEL>
%

>  <QUANTITATIVE_RESULT>
9.8

$$$$
>  <COMPOUND>
CCOC(=O)/C(=N\Nc1cc(Cl)ccc1Cl)N1CCN(C)CC1

>  <UNITS_LABEL>
%

>  <QUANTITATIVE_RESULT>
3.8

$$$$
>  <COMPOUND>
O=c1oc(-c2ccco2)nc2sc3c(c12)CCCCC3

>  <UNITS_LABEL>
%

>  <QUANTITATIVE_RESULT>
59.2

$$$$
>  <COMPOUND>
COc1ccc(C2=NN(C(=O)c3ccccc3C(=O)O)C(c3ccccc3O)C2)cc1 (stereo unspecified)

>  <UNITS_LABEL>
%

>  <QUANTITATIVE_RESULT>
-6.4

$$$$
>  <COMPOUND>
O=C(NCc1ccco1)/C(=C\c1cccc([N+](=O)[O-])c1)NC(=O)c1ccco1

>  <UNITS_LABEL>
%

>  <QUANTITATIVE_RESULT>
51.4

$$$$
>  <COMPOUND>
O=C(c1cnccn1)N1CCN(S(=O)(=O)c2cccc(Cl)c2)CC1

>  <UNITS_LABEL>
%

>  <QUANTITATIVE_RESULT>
-6.3

$$$$
>  <COMPOUND>
O=C(Nc1cccc(C(F)(F)F)c1)c1ccc(N2CCNCC2)c([N+](=O)[O-])c1

>  <UNITS_LABEL>
%

>  <QUANTITATIVE_RESULT>
-5

$$$$
>  <COMPOUND>
COc1ccc(C2CC(c3cccc(OC)c3)=NN2c2ccc(S(N)(=O)=O)cc2)cc1 (stereo unspecified)

>  <UNITS_LABEL>
%

>  <QUANTITATIVE_RESULT>
18.6

$$$$
>  <COMPOUND>
CNC(=O)c1[nH]cnc1C(=O)N[C@@H](CC(C)C)C(=O)OC(C)(C)C

>  <UNITS_LABEL>
%

>  <QUANTITATIVE_RESULT>
-5.3

$$$$
>  <COMPOUND>
O=S(=O)(c1ccc(Cl)cc1)c1nc(-c2ccco2)oc1N1CCCCC1

>  <UNITS_LABEL>
%

>  <QUANTITATIVE_RESULT>
17.9

$$$$
>  <COMPOUND>
Cc1cc([N+](=O)[O-])nn1Cc1ccc(F)cc1

>  <UNITS_LABEL>
%

>  <QUANTITATIVE_RESULT>
-0.9

$$$$
>  <COMPOUND>
O=C(COc1ccccc1F)NNC(=O)c1ccc(N2CCCCC2)c([N+](=O)[O-])c1

>  <UNITS_LABEL>
%

>  <QUANTITATIVE_RESULT>
4.2

$$$$
>  <COMPOUND>
Cc1ccc(NC(=O)c2nc[nH]c2C(=O)N[C@@H](CCCCNC(=O)OC(C)(C)C)C(=O)OC(C)(C)C)cc1

>  <UNITS_LABEL>
%

>  <QUANTITATIVE_RESULT>
75.3

$$$$
>  <COMPOUND>
CC(C)(C)OC(=O)NCCCCCNC(=O)c1[nH]cnc1C(=O)Nc1nccs1

>  <UNITS_LABEL>
%

>  <QUANTITATIVE_RESULT>
-15.7

$$$$
>  <COMPOUND>
CC(C)(C)OC(=O)NCCCCCNC(=O)c1nc[nH]c1C(=O)NCc1ccccc1

>  <UNITS_LABEL>
%

>  <QUANTITATIVE_RESULT>
8.2

$$$$
>  <COMPOUND>
O=C(/C=C/c1cccc([N+](=O)[O-])c1)NCCSCc1ccco1

>  <UNITS_LABEL>
%

>  <QUANTITATIVE_RESULT>
55.4

$$$$
>  <COMPOUND>
Cc1ccc(NC(=O)/C(=C\c2ccccc2)NC(=O)c2ccco2)cc1

>  <UNITS_LABEL>
%

>  <QUANTITATIVE_RESULT>
0

$$$$
>  <COMPOUND>
COc1ccc(OC)c(S(=O)(=O)N2CCCC(C(=O)N3CCC(C(N)=O)CC3)C2)c1 (stereo unspecified)

>  <UNITS_LABEL>
%

>  <QUANTITATIVE_RESULT>
-9.7

$$$$
